# Test system: A673/TR/shEF
# assay-overview: cell viability (LOESS-normalised, relative to median of negative controls) (log2 ratio); higher = more viable cells (less compound effect), active = hit call of the paper (over 3 MAD below the median)
# run-conditions: 25 µM; library screen: screen3; EWS-FLI1 expression: low (doxycycline-induced shRNA knockdown); treatment time: 72 h
The whole screen tested about 3,200 compounds, of which about 300 (9.4%) showed activity. Only a selection was taken, and actives are over-represented in it overall.
Outcome (select one): T = active, F = inactive

Example entries and their recorded answers appear below.
CO[C@H]1CC2CC[C@@H](C)[C@@](O)(O2)C(=O)C(=O)N2CCCC[C@H]2C(=O)O[C@H]([C@H](C)C[C@@H]2CC[C@@H](OP(C)(C)=O)[C@H](OC)C2)CC(=O)[C@H](C)/C=C(\C)[C@@H](O)[C@@H](OC)C(=O)[C@H](C)C[C@H](C)/C=C/C=C/C=C/1C	T
Nc1ccn([C@@H]2CS[C@H](CO)O2)c(=O)n1	F
CO[C@H]1C[C@@H]2CC[C@@H](C)[C@@](O)(O2)C(=O)C(=O)N2CCCC[C@H]2C(=O)O[C@H]([C@H](C)C[C@@H]2CC[C@@H](OC(=O)C(C)(CO)CO)[C@H](OC)C2)CC(=O)[C@H](C)/C=C(\C)[C@@H](O)[C@@H](OC)C(=O)[C@H](C)C[C@H](C)/C=C/C=C/C=C/1C	T
Nc1ccn([C@@H]2O[C@H](CO)[C@@H](O)C2(F)F)c(=O)n1	T
Cn1cncc1[C@@](N)(c1ccc(Cl)cc1)c1ccc2c(c1)c(-c1cccc(Cl)c1)cc(=O)n2C	T
CN1CC[C@H](c2c(O)cc(O)c3c(=O)cc(-c4ccccc4Cl)oc23)[C@H](O)C1	T
COc1ccc(-c2ccc3c(N4CCOCC4)nc(N4C[C@@H](C)O[C@@H](C)C4)nc3n2)cc1CO	T
Nc1ncn([C@H]2C[C@H](O)[C@@H](CO)O2)c(=O)n1	F

Consider now this further molecule.
Enquiry: For "NC(=O)c1ncn([C@@H]2O[C@H](CO)[C@@H](O)[C@H]2O)c1N" , what call appears in the results of this test?
Return: F

====

# Test system: A673/TR/shEF
# assay-overview: cell viability (LOESS-normalised, relative to median of negative controls) (log2 ratio); higher = more viable cells (less compound effect), active = hit call of the paper (over 3 MAD below the median)
# run-conditions: 25 µM; library screen: screen3; EWS-FLI1 expression: high (no doxycycline); treatment time: 72 h
The whole screen tested about 3,200 compounds, of which about 300 (9.4%) showed activity. What follows is part of a selection rich in actives, with near analogues and random picks from the rest.
Please answer using one outcome listed in active, inactive

C/C(=C\C(=O)Nc1ccccc1C(=O)O)c1ccc2ccccc2c1	inactive

Enquiry: Hi team, can someone confirm the assay call for "O=c1cc(-c2cccc3c2Sc2ccccc2S3)oc(N2CCOCC2)c1" ?
Return: inactive

Enquiry: Then "CNC(=O)c1c(F)cccc1Nc1nc(Nc2cc3c(cc2OC)CCN3C(=O)CN(C)C)nc2[nH]ccc12" ?
Return: active

Enquiry: Same question, "CCc1c2c(nc3ccc(OC(=O)N4CCC(N5CCCCC5)CC4)cc13)-c1cc3c(c(=O)n1C2)COC(=O)[C@]3(O)CC" this time
Return: active

====

# System: A673/TR/shEF
# assay-overview: cell viability (LOESS-normalised, relative to median of negative controls) (log2 ratio); higher = more viable cells (less compound effect), active = hit call of the paper (over 3 MAD below the median)
# run-conditions: 25 µM; library screen: screen1; EWS-FLI1 expression: low (doxycycline-induced shRNA knockdown); treatment time: 72 h
About 300 (9.4%) of roughly 3,200 compounds showed activity. Shown is part of a subset that was picked to be rich in actives.
Categories are assigned from the measured cell viability (log2) using these intervals: band A: < 0.01; band B: ≥ 0.01 and < 0.1; band C: ≥ 0.1

Illustrative cases are given below, each with its answer.
CC(C)C[C@H](NC(=O)[C@H](CCC(=O)O)NC(=O)CNC(=O)c1ccc(/C=C/C(=O)O)cc1)C(N)=O	band A
Cn1cc(C2=C(c3cn(CCCSC(=N)N)c4ccccc34)C(=O)NC2=O)c2ccccc21	band A
CN(C)c1ccc(/C=C2\C(=O)Nc3ccccc32)cc1	band C
CC(C)c1cc(/C=C(\C#N)C(=O)NCCCc2ccccc2)cc(C(C)C)c1O	band C
N#C/C(=C\c1cc(Cl)cc(Cl)c1)c1cccnc1	band C

Enquiry: Band for "Cn1cnc2c(NCc3ccccc3)nc(NCCO)nc21" ?
Return: band B

Enquiry: "O=C1Nc2ccc(I)cc2/C1=C/c1cc(Br)c(O)c(Br)c1" ?
Return: band C

Enquiry: Would you kindly repeat that for "O=S(=O)(c1cccc2c(I)cccc12)N1CCCNCC1" ?
Return: band A

====

# Test system: A673/TR/shEF
# assay-overview: cell viability (LOESS-normalised, relative to median of negative controls) (log2 ratio); higher = more viable cells (less compound effect), active = hit call of the paper (over 3 MAD below the median)
# run-conditions: 0.308 µM; library screen: screen3; EWS-FLI1 expression: high (no doxycycline); treatment time: 72 h
Hit rate of the full screen: of about 3,200 compounds, about 300 (9.4%) showed activity. Many of the other results were omitted from the sample, so actives are more common in it than they were.
cell viability (log2) under 0.04 gets 1, anything at or over 0.04 gets -1.

Solved cases below.
CN1CCCC(n2nc(Cc3ccc(Cl)cc3)c3ccccc3c2=O)CC1 (stereo not given)	1
CO[C@@H](C(=O)N1Cc2[nH]nc(NC(=O)c3ccc(N4CCN(C)CC4)cc3)c2C1)c1ccccc1	1
Cc1c(OCC(F)(F)F)ccnc1C[S+]([O-])c1nc2ccccc2[nH]1 (stereo not given)	-1
COc1cc2c(Nc3ccc(Br)cc3F)ncnc2cc1OCC1CCN(C)CC1	1
[Na+].[Na+].[Na+].[O]=[V]([O-])([O-])[O-]	1

Enquiry: Identify whether the molecule "C[C@H](NCCc1ccc(O)cc1)[C@H](O)c1ccc(O)cc1" records cell viability (log2) below 0.04.
Return: -1

Enquiry: How about "Nc1ncnc2nc[nH]c12" ?
Return: 1

Enquiry: Another molecule to check: "CCCCC1=NC2(CCCC2)C(=O)N1Cc1ccc(-c2ccccc2-c2nn[nH]n2)cc1"
Return: 1

Enquiry: Follow-up entry: "C[C@H]1COC2=C1C(=O)C(=O)c1c2ccc2c1CCCC2(C)C"
Return: -1

Enquiry: Then "COc1cc2ncnc(Nc3ccc(F)c(Cl)c3)c2cc1OCCCN1CCOCC1" ?
Return: -1

Enquiry: Next molecule: "COC(=O)Nc1ccc(-c2nc(N3CCOCC3)c3cnn(C4CCN(Cc5cccnc5)CC4)c3n2)cc1"
Return: 1

Enquiry: Here is the next molecule: "CN(C)c1ccc(C(=C2C=CC(=[N+](C)C)C=C2)c2ccc(N(C)C)cc2)cc1"
Return: -1

Enquiry: Likewise for "CN(C)C/C=C/C(=O)Nc1cc2c(Nc3ccc(F)c(Cl)c3)ncnc2cc1O[C@H]1CCOC1" ?
Return: 1

Enquiry: Also, "C=CC(=O)Nc1cc2c(Nc3ccc(F)c(Cl)c3)ncnc2cc1OCCCN1CCOCC1" please.
Return: 1

====

# Tested on: A673/TR/shEF
# assay-overview: cell viability (LOESS-normalised, relative to median of negative controls) (log2 ratio); higher = more viable cells (less compound effect), active = hit call of the paper (over 3 MAD below the median)
# run-conditions: 0.25 µM; library screen: screen1; EWS-FLI1 expression: high (no doxycycline); treatment time: 72 h
Screen size: about 3,200 compounds; about 300 (9.4%) showed activity. The sample holds actives, similar compounds and a random draw of the others, so the mix is not that of the screen.
Mark each entry Met if its cell viability (log2) sits below 0.09, and Not met for all others.

The following molecules have reported results that may help.
CCCN(CCC)C(=O)C(CCC(=O)O)NC(=O)c1ccccc1 (stereo not drawn)	Not met
O=c1cccc2c([C@H]3Oc4cc(O)cc(O)c4C[C@H]3O)cc(O)c(O)c2c1O	Met
Nc1ccc(C(=O)NCC(=O)O)cc1	Met
COc1ccc(C(=O)c2ccccc2)c(O)c1O	Not met
CC[C@H](CO)Nc1nc(NCc2ccccc2)c2ncn(C(C)C)c2n1	Met

Enquiry: Is cell viability (log2) strictly under 0.09 for the entry "O=C(NCO)c1cccnc1" ?
Return: Not met

Enquiry: Request: "C[n+]1c2cc(N)ccc2cc2ccc(N)cc21"
Return: Met

Enquiry: How about this molecule: "CCOc1c(Br)cc(C=C(C#N)c2nn(-c3ccccc3)c(N)c2C#N)cc1OC"
Return: Met

Enquiry: Quick one: "COc1c2c(cc3ccoc13)C(=O)[C@H]1c3cc4c(cc3OC[C@H]1O2)OCO4"
Return: Met
